Record form. Attribute: IC50. Fill in for each entry.
- tgt: MvitGOBP2 (Maruca vitrata)
- Sequence (A0A088MJX9 entry or part of it): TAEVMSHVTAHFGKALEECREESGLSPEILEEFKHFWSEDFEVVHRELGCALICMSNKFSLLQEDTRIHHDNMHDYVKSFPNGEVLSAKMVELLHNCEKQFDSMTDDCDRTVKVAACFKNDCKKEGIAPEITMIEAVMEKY
- procedureText: Fluorescence competitive binding assay (1-NPN displacement) with recombinant MvitGOBP2
- measurementSetup: '-' = exceeded 50 μM for half-maximal inhibition; read-out: MvitGOBP2 IC50 (class symbol)

Request the reported IC50 associated with Oc1cccc2[nH]ccc12 [Compound 15, 1H-indol-4-ol]
> 50 µM

Request the reported IC50 associated with Cc1cc(C)cc(C(C)(C)C)c1 [Compound 17]
> 50 µM

Request the reported IC50 associated with CC(=O)c1ccc(C)cc1C [Compound 12, 1-(2,4-Dimethylphenyl)-ethanone]
> 50 µM

* * *

Record form. Attribute: Ki. Fill in for each entry.
- tgt: UniProtKB A0A0S1S6H9
- Sequence (A0A0S1S6H9 entry or part of it): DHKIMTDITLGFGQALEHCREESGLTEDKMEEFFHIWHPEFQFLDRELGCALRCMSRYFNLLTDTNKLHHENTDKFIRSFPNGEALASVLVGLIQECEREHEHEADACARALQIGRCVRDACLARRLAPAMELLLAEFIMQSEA
- procedureText: Fluorescence competitive binding assay (1-NPN displacement) with recombinant MvitGOBP1
- Method: Fluorescence binding activity was determined as described by previous study. Emission fluorescence spectra were recorded on a Hitachi F-4500 at 25°C in a right angle configuration, with a 1 cm light path quartz cuvette and 5 nm slits for both excitation and emission. The protein was dissolved in 20 mM Tris-HCl buffer, pH 7.4, and ligands were added as 1 mM methanol solutions. […] The probe was excited at 337 nm and emission spectra were recorded between 380 and 450 nm. […]
A number alone suffices; assume µM.

Under UniProtKB A0A0S1S6H9: Ki value of CCc1ccc(C(C)=O)cc1 ?
17

Under UniProtKB A0A0S1S6H9: Ki value of O=Cc1ccccc1 ?
16.6

Under UniProtKB A0A0S1S6H9: Ki value of CC(=O)c1ccc(C(C)=O)cc1 ?
22.7

Under UniProtKB A0A0S1S6H9: Ki value of O=Cc1ccccc1O [Compound 7, 2-hydroxybenzaldehyde] ?
15.5
